Values from PubChem BioAssay (NCI)

- Tested on: RXF 393 renal
- method.description: NCI tumour cell line growth inhibition, 48 h
result.type: GI50

Input: So what does the record say about GI50 for Cc1c2ncccc2c(C)c2c1[nH]c1ccc(O)cc12 ?
Output: 10700 nM

Input: So what does the record say about GI50 for NCCCn1c2c(c3ccccc3c1=O)C(=O)c1cc3c(cc1-2)OCO3 ?
Output: 2350 nM

Input: So what does the record say about GI50 for Cc1cc(S(=O)(=O)Nc2nnc(-c3ccco3)c(-c3ccco3)n2)c(SCc2ccccc2)cc1Cl ?
Output: 22800 nM

Input: So what does the record say about GI50 for C[C@@H](Oc1cc(-c2cnn(C3CCNCC3)c2)cnc1N)c1c(Cl)ccc(F)c1Cl ?
Output: 1360 nM

Input: So what does the record say about GI50 for O=C1C(Cl)=C(Oc2ccccc2)C(=O)c2ccccc21 ?
Output: 2750 nM

Input: So what does the record say about GI50 for Cc1c(C(=O)CCl)c(=O)n(-c2ccccc2)n1C ?
Output: 1760 nM

Input: So what does the record say about GI50 for COc1c(O)cc2oc3cc(O)c(CC=C(C)C)c(O)c3c(=O)c2c1C/C=C(\C)CCC=C(C)C ?
Output: 5530 nM

Input: So what does the record say about GI50 for CC(C)(C)[Si](C)(C)OC1[C@@H](O[Si](C)(C)C(C)(C)C)[C@@H](CNC(=O)NC(=O)NC(=O)CI)O[C@H]1n1cnc2c(NC(=O)Nc3ccccc3)ncnc21 (some centres undefined) ?
Output: 713 nM

Input: So what does the record say about GI50 for Cn1cc(-c2nc(-c3c[nH]c4ncccc34)cs2)c2cc(Cl)ccc21 ?
Output: 4630 nM
